- SYSTEM UNDER TEST: Hexose transporter 1 (Plasmodium falciparum) (UniProt O97467)
- ASSAY COMMENT: ST_JUDE_LEISH: Cytotoxicity at 2uM final concentration against transgenic Leishmania Mexicana promastigotes LmPfHT that are glucose transport deficient and complemented with the Plasmodium falciparum hexose transporter. Activity is measured by DNA content using SYBR green in vitro
- Format: functional

{"MOLECULE": "CCCCCCCN(CCCCCCC)CCNc1cc(C)nc2ccccc12", "SYSTEM UNDER TEST": "Hexose transporter 1 (Plasmodium falciparum) (UniProt O97467)", "UNIT TAG": "%", "inhibition": 5.18}
{"MOLECULE": "COc1ccc(Nc2ncc(C#N)c(Nc3ccccc3C(N)=O)n2)cc1N1CCN(C)CC1", "SYSTEM UNDER TEST": "Hexose transporter 1 (Plasmodium falciparum) (UniProt O97467)", "UNIT TAG": "%", "inhibition": 18.1}
{"MOLECULE": "O=C(CC1NC(=O)c2ccccc21)Nc1ccc(-c2ccc(-c3nc4cc(C(F)(F)F)ccc4[nH]3)cc2)cc1 (stereo not drawn)", "SYSTEM UNDER TEST": "Hexose transporter 1 (Plasmodium falciparum) (UniProt O97467)", "UNIT TAG": "%", "inhibition": 3.05}
{"MOLECULE": "CO/C(=C\\C=C\\c1cc2cc(Cl)c(Cl)cc2[nH]1)C(=O)NCCCN1CCN(C2CCCCC2)CC1", "SYSTEM UNDER TEST": "Hexose transporter 1 (Plasmodium falciparum) (UniProt O97467)", "UNIT TAG": "%", "inhibition": 5.7}
{"MOLECULE": "CCCC1(NC[C@@H](O)[C@H](Cc2ccccc2)NC(=O)c2cc(NCC)cc(N3CCCCS3(=O)=O)c2)CCCCC1", "SYSTEM UNDER TEST": "Hexose transporter 1 (Plasmodium falciparum) (UniProt O97467)", "UNIT TAG": "%", "inhibition": 0.97}
{"MOLECULE": "CCC(C)NS(=O)(=O)c1ccc2nc(Nc3ccc(C)cc3)n([C@H](C)C(C)(C)C)c2c1 (stereo partly drawn)", "SYSTEM UNDER TEST": "Hexose transporter 1 (Plasmodium falciparum) (UniProt O97467)", "UNIT TAG": "%", "inhibition": 0.25}
{"MOLECULE": "O=C(Nc1ccc(Cl)cc1)c1cccc2nc(C(F)(F)F)[nH]c12", "SYSTEM UNDER TEST": "Hexose transporter 1 (Plasmodium falciparum) (UniProt O97467)", "UNIT TAG": "%", "inhibition": 9.14}
{"MOLECULE": "CCCc1cc2c3c(N)nc(N)nc3ccc2n1CC", "SYSTEM UNDER TEST": "Hexose transporter 1 (Plasmodium falciparum) (UniProt O97467)", "UNIT TAG": "%", "inhibition": 8.39}
{"MOLECULE": "CCCc1nc2c(N3CC(NC(=O)/C=C/c4ccccc4)C3)cccc2n1C1CC1", "SYSTEM UNDER TEST": "Hexose transporter 1 (Plasmodium falciparum) (UniProt O97467)", "UNIT TAG": "%", "inhibition": 7.28}
{"MOLECULE": "CCOc1cc(C(=O)NCCCN2CCN(c3cccc(Cl)c3)CC2)ccc1-c1nc2cc(Cl)c(F)cc2[nH]1", "SYSTEM UNDER TEST": "Hexose transporter 1 (Plasmodium falciparum) (UniProt O97467)", "UNIT TAG": "%", "inhibition": -0.11}
{"MOLECULE": "O=C(Nc1cccc(CN2CCCN(Cc3cccnc3)CC2)c1)c1ccc(Cl)c(Cl)c1", "SYSTEM UNDER TEST": "Hexose transporter 1 (Plasmodium falciparum) (UniProt O97467)", "UNIT TAG": "%", "inhibition": 4.16}
{"MOLECULE": "Cc1noc(-c2ccc3c(c2)CCN(CCC2CCC(NC(=O)/C=C/c4cccc(Cl)c4)CC2)CC3)n1 (stereo not drawn)", "SYSTEM UNDER TEST": "Hexose transporter 1 (Plasmodium falciparum) (UniProt O97467)", "UNIT TAG": "%", "inhibition": 0}
{"MOLECULE": "Cc1ccc(CON2C(N)=NC(N)=NC2(C)C)c(Cl)c1.Cc1ccc(CON2C(N)=NC(N)=NC2(C)C)cc1Cl", "SYSTEM UNDER TEST": "Hexose transporter 1 (Plasmodium falciparum) (UniProt O97467)", "UNIT TAG": "%", "inhibition": 4.84}
{"MOLECULE": "Cc1ccc(Cn2c(N3CCC(C(=O)NCc4ccccn4)CC3)nc3ccccc32)cc1", "SYSTEM UNDER TEST": "Hexose transporter 1 (Plasmodium falciparum) (UniProt O97467)", "UNIT TAG": "%", "inhibition": 4.68}
{"MOLECULE": "c1ccc(-n2cncn2)cc1", "SYSTEM UNDER TEST": "Hexose transporter 1 (Plasmodium falciparum) (UniProt O97467)", "UNIT TAG": "%", "inhibition": 1.47}
{"MOLECULE": "CCNc1cc(C(=O)N[C@@H](Cc2ccccc2)[C@H](O)CNC2(CC)CC2)cc(N2CCCCS2(=O)=O)c1", "SYSTEM UNDER TEST": "Hexose transporter 1 (Plasmodium falciparum) (UniProt O97467)", "UNIT TAG": "%", "inhibition": 2.01}
{"MOLECULE": "COc1ccc2nccc([C@@H](O)CN3CCC(NCC4COc5ccccc5O4)CC3)c2c1 (stereo partly drawn)", "SYSTEM UNDER TEST": "Hexose transporter 1 (Plasmodium falciparum) (UniProt O97467)", "UNIT TAG": "%", "inhibition": 8.69}
{"MOLECULE": "CC[C@H](C)CNC(=O)c1cncc(-c2ccc(CNC3Cc4ccccc4C3)cc2)c1", "SYSTEM UNDER TEST": "Hexose transporter 1 (Plasmodium falciparum) (UniProt O97467)", "UNIT TAG": "%", "inhibition": 6.72}
{"MOLECULE": "COC(=O)CCCCOc1cc(Cc2cnc(N)nc2N)cc(OC)c1OC", "SYSTEM UNDER TEST": "Hexose transporter 1 (Plasmodium falciparum) (UniProt O97467)", "UNIT TAG": "%", "inhibition": 1.3}
{"MOLECULE": "NCC1CCCN1Cc1ccc(-c2cccc(-c3nc4cc(F)ccc4[nH]3)c2)cc1 (stereo not drawn)", "SYSTEM UNDER TEST": "Hexose transporter 1 (Plasmodium falciparum) (UniProt O97467)", "UNIT TAG": "%", "inhibition": 1.31}
{"MOLECULE": "CN1CCCN(Cc2cccc(-c3cccc(NC(=O)c4ccc(Cl)cc4)c3)c2)CC1", "SYSTEM UNDER TEST": "Hexose transporter 1 (Plasmodium falciparum) (UniProt O97467)", "UNIT TAG": "%", "inhibition": 4.21}
{"MOLECULE": "CCn1c(-c2nonc2N)nc2c(-c3cccc(Cl)c3)ncc(OCCCNCCc3c[nH]cn3)c21", "SYSTEM UNDER TEST": "Hexose transporter 1 (Plasmodium falciparum) (UniProt O97467)", "UNIT TAG": "%", "inhibition": 4.78}
{"MOLECULE": "COc1cc(Nc2ccnc3cc(-c4ccncc4)ccc23)cc(OC)c1OC", "SYSTEM UNDER TEST": "Hexose transporter 1 (Plasmodium falciparum) (UniProt O97467)", "UNIT TAG": "%", "inhibition": 20.7}
{"MOLECULE": "Cc1cccc2nc(-c3ccc(-c4ccc(CN5CCCCC5)cc4)cc3)[nH]c12", "SYSTEM UNDER TEST": "Hexose transporter 1 (Plasmodium falciparum) (UniProt O97467)", "UNIT TAG": "%", "inhibition": 18.6}
{"MOLECULE": "Cc1[nH]c(C)c(-c2ccc(-c3ccc(F)cc3)nc2)c(=O)c1Br", "SYSTEM UNDER TEST": "Hexose transporter 1 (Plasmodium falciparum) (UniProt O97467)", "UNIT TAG": "%", "inhibition": 1.82}
{"MOLECULE": "CN1CCC(NCc2ccc(-c3cccc(-c4nc5ccccc5[nH]4)c3)cc2)CC1", "SYSTEM UNDER TEST": "Hexose transporter 1 (Plasmodium falciparum) (UniProt O97467)", "UNIT TAG": "%", "inhibition": 2.05}
{"MOLECULE": "COc1ccc2ncc(F)c([C@@H](O)CN3CCC(NCc4cc5c(cn4)OCS5)CC3)c2c1", "SYSTEM UNDER TEST": "Hexose transporter 1 (Plasmodium falciparum) (UniProt O97467)", "UNIT TAG": "%", "inhibition": 1.41}
{"MOLECULE": "c1ccc(CCNCc2ccc(-c3ccc(CNCc4ccc5c(c4)OCO5)cc3)nc2)cc1", "SYSTEM UNDER TEST": "Hexose transporter 1 (Plasmodium falciparum) (UniProt O97467)", "UNIT TAG": "%", "inhibition": -1.05}
{"MOLECULE": "Cn1c(=O)c2cc(C(=O)NCCCN3CCCCCC3)sc2c2ccccc21", "SYSTEM UNDER TEST": "Hexose transporter 1 (Plasmodium falciparum) (UniProt O97467)", "UNIT TAG": "%", "inhibition": 4.91}
{"MOLECULE": "CC(=O)Nc1ccc(Nc2ncc([N+](=O)[O-])c(Nc3ccccc3C(N)=O)n2)cc1", "SYSTEM UNDER TEST": "Hexose transporter 1 (Plasmodium falciparum) (UniProt O97467)", "UNIT TAG": "%", "inhibition": 1.61}
{"MOLECULE": "CCCNCc1ccc(-c2ccc(CN(CCOC)C(=O)c3cccc(C#N)c3)cc2)nc1", "SYSTEM UNDER TEST": "Hexose transporter 1 (Plasmodium falciparum) (UniProt O97467)", "UNIT TAG": "%", "inhibition": 1.45}
{"MOLECULE": "CCCc1cn2c3c(cc(C(=O)N[C@@H](Cc4ccccc4)[C@H](O)CNC4CCOCC4)cc13)N(CC)S(=O)(=O)CC2", "SYSTEM UNDER TEST": "Hexose transporter 1 (Plasmodium falciparum) (UniProt O97467)", "UNIT TAG": "%", "inhibition": 2.35}
{"MOLECULE": "CCCOc1cc(NC(=O)Nc2ccnc3ccccc23)cc(OCCC)c1", "SYSTEM UNDER TEST": "Hexose transporter 1 (Plasmodium falciparum) (UniProt O97467)", "UNIT TAG": "%", "inhibition": 3}
{"MOLECULE": "C[C@H]1CN(Cc2cccc(-c3cc(CNC(=O)c4cccc(CN5CCN(CCOc6ccccc6)CC5)c4)ccc3F)c2)CCN1", "SYSTEM UNDER TEST": "Hexose transporter 1 (Plasmodium falciparum) (UniProt O97467)", "UNIT TAG": "%", "inhibition": 0.96}
{"MOLECULE": "C(=N\\Nc1nccc2sc(-c3ccccc3)cc12)/c1cccnc1", "SYSTEM UNDER TEST": "Hexose transporter 1 (Plasmodium falciparum) (UniProt O97467)", "UNIT TAG": "%", "inhibition": 3.5}
{"MOLECULE": "Cc1nc2ccc3ccc(CNc4ccc(C(=O)CC(CCC(=O)O)C(=O)O)cc4)cc3c2c(=O)[nH]1 (stereo not drawn)", "SYSTEM UNDER TEST": "Hexose transporter 1 (Plasmodium falciparum) (UniProt O97467)", "UNIT TAG": "%", "inhibition": -1.01}
{"MOLECULE": "CCOC(=O)[C@H](Cc1cc([N+](=O)[O-])c(Oc2ccc(OC)c(Cc3ccc(OC)c(C(C)C)c3)c2)c([N+](=O)[O-])c1)NC(=O)C(F)(F)F", "SYSTEM UNDER TEST": "Hexose transporter 1 (Plasmodium falciparum) (UniProt O97467)", "UNIT TAG": "%", "inhibition": 9.19}
{"MOLECULE": "COc1ccc(-c2csc(C(=O)NC3CCC(N4CCC(c5ccccc5C)CC4)CC3)c2)cc1 (stereo not drawn)", "SYSTEM UNDER TEST": "Hexose transporter 1 (Plasmodium falciparum) (UniProt O97467)", "UNIT TAG": "%", "inhibition": 4.24}
